protocolText: Half life of compound in water at 10 uM in presence of LED illumination at 9.4 mW/cm'2 by UV/VIS/NIR spectrometer
Format: physicochemical

smiles: Cl.Cl.Cl.Cl.NCCOc1ccc(/C=C/C(=O)CC(=O)/C=C/c2ccc(OCCN)c(OCCN)c2)cc1OCCN
half-life at 10 µM (min): 60

====

protocolText: n-Octanol/sorensen buffer partition coefficient, log D of compound at 50 uM at pH 7 after 10 mins by shake-flask method
Assay type: physicochemical

smiles: COc1cc(/C=C/C(=O)CC(=O)/C=C/c2ccc(OCCN)c(OC)c2)ccc1OCCN.Cl.Cl
limitSign: =
logD at 10 min, 50 µM: -1.2

smiles: Cc1cc(/C=C/C(=O)CC(=O)/C=C/c2ccc(OCCN)c(C)c2)ccc1OCCN.Cl.Cl
limitSign: =
logD at 10 min, 50 µM: -0.8

smiles: Cl.Cl.Cl.Cl.NCCOc1ccc(/C=C/C(=O)CC(=O)/C=C/c2ccc(OCCN)c(OCCN)c2)cc1OCCN
limitSign: <
logD at 10 min, 50 µM: -2

smiles: COc1cc(OCCN)ccc1/C=C/C(=O)CC(=O)/C=C/c1ccc(OCCN)cc1OC.Cl.Cl
limitSign: =
logD at 10 min, 50 µM: -1.1

smiles: Cl.Cl.NCCOc1ccc(/C=C/C(=O)CC(=O)/C=C/c2ccc(OCCN)cc2)cc1
limitSign: =
logD at 10 min, 50 µM: -0.9

smiles: COc1cc(/C=C/C(=O)CC(=O)/C=C/c2ccc(OCCOCCN)c(OC)c2)ccc1OCCOCCN.Cl.Cl
limitSign: =
logD at 10 min, 50 µM: -1.6

smiles: Cl.Cl.Cl.Cl.Cl.Cl.NCCOc1cc(/C=C/C(=O)CC(=O)/C=C/c2cc(OCCN)c(OCCN)c(OCCN)c2)cc(OCCN)c1OCCN
limitSign: <
logD at 10 min, 50 µM: -2

smiles: Cl.Cl.NCCCOc1ccc(/C=C/C(=O)CC(=O)/C=C/c2ccc(OCCCN)c(OCc3ccccc3)c2)cc1OCc1ccccc1
limitSign: =
logD at 10 min, 50 µM: -0.6

These measurements were taken from ChEMBL document CHEMBL4261577.
